Target: T1, SARS-COV-2 RBD (SARS-COV-2, UniProt P0DTC2 319-539)
T1 construct: also called WT RBD
Experiment: ELISA, RBD coated on plate
observable: EC50 (ng/mL)

INSERT INTO results (binder, observable, value_units, obs_value) VALUES
  ('C935 (antibody, V domains shown) VH: QVQLVESGGGVVQPGRSLRLSCAATGFTFSSYGMHWVRQAPGKGLEWVALIWYDGSNQYYVDSVKGRFTISRDNSKKTLYLQMNSLRVEDTAVYYCARDFSNSDMVTLSDAFDIWGQGTMVTVSS VL: DIQLTQSPSFLSASVGDRVTIACRASQGISSYSSYLAWYQQKPGKAPKLLIYAASTLQSGVPSRFSGSGSGTEFTLTISSLQPEDFATYYCQQLNSYPLFTFGPGTKVDIK', 'EC50', 'ng/mL', 2.86),
  ('C925 (antibody, V domains shown) VH: QVQLVESGGGVVQPGRSLRLSCAASGFTFSNYGLHWVRQAPGKGLEWVAVTSDDGNRKYYADSVKGRFTISRDDSKNTLYLQMNNLRTEDTAVYYCAKSWWLSENWFDPWGQGTLVTVSS VL: EIVMTQSPATLSVSPGERATLSCRASQSVRSNLAWYQQRPGQAPRLLIYGAFTRATGIPARFSVSGSGTEFTLTIDSLQSEDFAVYYCQQYNNWPLTFGGGTKVEIK', 'EC50', 'ng/mL', 2.26),
  ('C928 (antibody, V domains shown) VH: QVQLVESGGGVVQPGRSLRLSCAASGFTFSFFDMHWVRQAPGKGLEWVADISYDGSNQYYGDSVKGRFTISRDNSKSTLYLQMNSLRAEDTAVYYCAKPVDTAMFDSWGQGTLVTVSS VL: SYELTQPPSVSVAPGETARITCGGNNIGHKSVHWYQQQPGQAPVLVIYYDSERPSGIPERFSGSNSGNTATLTISRVEAGDEADYHCQVWDGGNDHLVIFGGGTKLTVL', 'EC50', 'ng/mL', 4.14),
  ('C946 (antibody, V domains shown) VH: QVQLVQSGAEVKKPGASVKVSCKASGYTFTNYYIHWVRQAPGQGLEWMGIINPDGDSTSYVQKFQGRVTMTRDTSTSTVYMELSSLRSEDTAVYYCARDLVFVPATSAMDVWGKGTTVTVSS VL: EIVLTQSPATLSLSPGERATLSCRASQSVSSYLAWYQQKPGQAPRLLIYDASNRATGIPARFSGSGSGTDFTLTISSLEPEDFAVYYCQQRSNWLFTFGPGTKVDIK', 'EC50', 'ng/mL', 3.82),
  ('C905 (antibody, V domains shown) VH: QVQLQESGPGLVTPSQTLSLTCSVSGGSIHSRDFYWGWIRQHPGKGLEWIGHIYYTGNTYYNPSLKSRVTISADTSKNQFSLKLSSVTAADTAVYYCARATVVITLHWFDPWGQGTLVTVSS VL: NFMLTQPHSVSESPGKTVTISCTGSGGSIASNYVQWYQQRPGSAPTTVIYEDNERPSGVPDRFSGSIDSSSNSASLTISGVKTEDEADYFCQSYDVGNPVIFGGGTKLTVL', 'EC50', 'ng/mL', 3.06),
  ('C1052 (antibody, V domains shown) VH: QVQLVQSGAEVKKPGASVKVSCKVSGYTLSELSMHWVRQAPGEGLEWLGGFDPEDGETINAQKFQGRVTMTEDRSTDTAYMELSSLRSEDTAVYYCATRGRYCSSGNCYYHHWGQGTLVTVSS VL: DIQMTQSPSTLSASVGDRVIITCRASQNIHNWLAWYQQKPGKAPKLLIYKASSLESGVPSRFSGSGSGTEFTLTISSLQPDDFATYFCQQYHSYSWTFGQGTKVEIK', 'EC50', 'ng/mL', 2.64),
  ('C903 (antibody, V domains shown) VH: EVQLVESGGGLIQPGGSLRLSCAASGFIVSRNYMSWVRQAPGKGLEWVSIIYSGGSTFYADSVKGRFTISRDNSKNTVYLQMNSLRAEDTAVYYCARDYGDFYFDYWGQGTLVTVSS VL: EIVLTQSPGTLSLSPGERATLSCRASQSVSSSYLAWYQQKPGQAPRLLIFDVSSRATGIPDRFSGSGSGTDFTLTISRLEPEDFAVYYCQQYGSSPRTFGQGTKVEIK', 'EC50', 'ng/mL', 2.54),
  ('C1063 (antibody, V domains shown) VH: EVQLVQSGAEVKKPGESLKISCKGYGNSFNNYWIAWVRQMPVKGLEWMGVINPGDSDTRYSPSFQGQVTISVDKSISTAYLQWSSLKASDTAMYYCARTWSPAAVAFFDSWGQGTLVTVS VL: NFMLTQPHSVSESPGKTVTISCTRSSDSIGSNYVQWYQQRPGSSPTIVIYEDSQRPSGVPHRFSGSFDSSSNSASLTISGLKTEDEADYYCQSWDSGNLVFGGGTKLTVL', 'EC50', 'ng/mL', 3.04),
  ('C920 (antibody, V domains shown) VH: QLQLQESGPGLVKPSETLSLTCAVSGGSISNSPFYWGWIRQPPGKGLECIGSIYYSGSTYYNPSLKSRVTISVDTSKKQFSLKLSSVTAADTAVYYCARHFADGSGRVVDSWGQGILVTVSS VL: EIVLTQSPATLSLSPGERATLSCRASQSVSSYLAWYQQKPGQAPSLLIYDVSNRATGIPARFSGSGSGTDFTLTISSLEPEDFAVYYCQQRINWPLYTFGQGTKLEIK', 'EC50', 'ng/mL', 2.35),
  ('C1043 (antibody, V domains shown) VH: EVQLVESGGGLVQPGRSLRLSCAASGFIFDNYAMHWVRQAPGKGLEWVSGISWNSDSIGYADSVKGRFTISRDNAKNSLYLQMSSLRAEDTALYYCAKDLLGNYYYYTLDVWGQGTTVTVSS VL: QSALTQPASVSGSPGQSITISCTGTSSDIGGNNYVSWYQQHPGKAPRLMIFDVSYRPSGVSNRFSGSKSGNTASLTISGLQAEDEADYYCISYTTSSTLGVFGGGTKLTVL', 'EC50', 'ng/mL', 2.77);

Data origin: patent US20240218057A1
